Below is a list of entries, each paired with its recorded combination Emax value.
# Tested on: KYSE-450 (Esophageal Squamous Cell Carcinoma)
# procedure-details: combination Emax (second highest fraction inhibited in the dose matrix, 72 h); higher = more inhibition; extreme values may be limits of the assay
Field format: numeric only.

Guide cases for combination Emax, answers given:
compound	observed
CN(C)CCCOc1ccc(-c2ccc3ncc4c(c3c2)n(C2CCOCC2)c(=O)n4C)cn1 [AZD0156] + CCN(CCO)CCCOc1ccc2c(Nc3cc(CC(=O)Nc4cccc(F)c4)[nH]n3)ncnc2c1 [AZD2811] (first compound max 1 µM, 7x7, partner max 1 µM)	0.193
CCc1c2c(nc3ccc(O)cc13)-c1cc3c(c(=O)n1C2)COC(=O)[C@]3(O)CC [SN-38] + O=C(c1cc(Cc2n[nH]c(=O)c3ccccc23)ccc1F)N1CCN(C(=O)C2CC2)CC1 [Olaparib] (first compound max 0.3 µM, 7x7, partner max 10 µM)	0.671
C[C@@H]1COCCN1c1cc(C2([S@](C)(=N)=O)CC2)nc(-c2ccnc3[nH]ccc23)n1 [AZD6738] + O=C(c1cc(Cc2n[nH]c(=O)c3ccccc23)ccc1F)N1CCN(C(=O)C2CC2)CC1 [Olaparib] (first compound max 10 µM, 7x7, partner max 10 µM)	0.608
CC1(C)CCC(CN2CCN(c3ccc(C(=O)NS(=O)(=O)c4ccc(NCC5CCOCC5)c([N+](=O)[O-])c4)c(Oc4cnc5[nH]ccc5c4)c3)CC2)=C(c2ccc(Cl)cc2)C1 [Venetoclax] + C1CN(CCC1(C(=O)N[C@@H](CCO)C2=CC=C(C=C2)Cl)N)C3=NC=NC4=C3C=CN4 [Capivasertib] (first compound max 1 µM, 7x7, partner max 3 µM)	0.197
Cn1cnc2c(F)c(Nc3ccc(Br)cc3Cl)c(C(=O)NOCCO)cc21 [Selumetinib] + CCN(CCO)CCCOc1ccc2c(Nc3cc(CC(=O)Nc4cccc(F)c4)[nH]n3)ncnc2c1 [AZD2811] (first compound max 10 µM, 7x7, partner max 1 µM)	0.209

### Prompt Indicate the recorded combination Emax value for this compound: C[C@@H]1COCCN1c1cc(C2([S@](C)(=N)=O)CC2)nc(-c2ccnc3[nH]ccc23)n1 [AZD6738] + Nc1ccn([C@@H]2O[C@H](CO)[C@@H](O)C2(F)F)c(=O)n1 [Gemcitabine] (first compound max 10 µM, 7x7, partner max 0.3 µM)
### Response 0.862

### Prompt Please look at this compound and report its combination Emax: CN(CCO)CC[C@H](CSc1ccccc1)Nc1ccc(S(=O)(=O)NC(=O)c2ccc(N3CCC([C@@H](O)c4ccccc4-c4ccc(Cl)cc4)CC3)cc2)cc1S(=O)(=O)C(F)(F)F [AZD4320] + C1CN(CCC1(C(=O)N[C@@H](CCO)C2=CC=C(C=C2)Cl)N)C3=NC=NC4=C3C=CN4 [Capivasertib] (first compound max 1 µM, 7x7, partner max 3 µM)
### Response 0.199

### Prompt Answer with reported combination Emax of CC1(C)CCC(CN2CCN(c3ccc(C(=O)NS(=O)(=O)c4ccc(NCC5CCOCC5)c([N+](=O)[O-])c4)c(Oc4cnc5[nH]ccc5c4)c3)CC2)=C(c2ccc(Cl)cc2)C1 [Venetoclax] + C=CCn1c(=O)c2cnc(Nc3ccc(N4CCN(C)CC4)cc3)nc2n1-c1cccc(C(C)(C)O)n1 [AZD1775] (first compound max 1 µM, partner max 1 µM)
### Response 0.614

### Prompt Please report the measured combination Emax for COc1cccc(OCCCN)c1-c1cc(Nc2cnc(C#N)cn2)n[nH]1 [Prexasertib] + Cc1cc2ncnn2cc1Nc1ncc2c(n1)n(C1CCOCC1)c(=O)n2C [AZD7648] (first compound max 1 µM, 7x7, partner max 10 µM)
### Response 0.584

Each recorded value in this set is attributed to the supplement of paper PMC11061612.
